# test: Induction of apoptosis in CHO cells assessed as viable cells at 10 uM after 48 hrs using FITC-annexin V-FITC/propidium iodide by flow cytometry (reference value: 93.3%)
# Assay type: cell-based, Cricetulus griseus
# recorded conditions: chinese hamster, read-out: Activity
property: viability at 48 h, 10 µM (%)
// units = %; emit number, no label

INSERT INTO results (compound, numeric_readout) VALUES
  ('CCCCCCCC[N+](C)(CCCCCCCC)CCNC(=O)[C@@]1(O)[C@H](C)C[C@H]2[C@@H]3CCC4=CC(=O)C=C[C@]4(C)[C@@]3(F)[C@@H](O)C[C@@]21C.[Cl-]', 94.1);

Next, consider the following compound.
I'd like to know its viability at 48 h, 10 µM. The compound in question is C[C@@H]1C[C@H]2[C@@H]3CCC4=CC(=O)C=C[C@]4(C)[C@@]3(F)[C@@H](O)C[C@]2(C)[C@@]1(O)C(=O)CO [DEXAMETHASONE]
95.8

----------
# System: A549
# test: Anticancer against human A549 cells after 72 hrs by MTT assay
# Type: functional, cell-based
# recorded conditions: A549, 72 h
Here the recorded pIC50 is given for each entry.
Answer as the number alone; pIC50 is minus log10 of concentration in mol/L.

INSERT INTO results (molecular_string, property, numeric_readout) VALUES
  ('CCCCCCCCCCCCCCCC[N+](C)(CCCCCCCCCCCCCCCC)CCNC(=O)[C@@]1(O)[C@H](C)C[C@H]2[C@@H]3CCC4=CC(=O)C=C[C@]4(C)[C@@]3(F)[C@@H](O)C[C@@]21C', 'pIC50', 4.83),
  ('CCCCCCCC[N+](C)(CCCCCCCC)CCNC(=O)[C@@]1(O)[C@H](C)C[C@H]2[C@@H]3CCC4=CC(=O)C=C[C@]4(C)[C@@]3(F)[C@@H](O)C[C@@]21C.[Cl-]', 'pIC50', 5.14);

Here is another compound to look at.
Reported pIC50, compound `CCCCCCCCCCCC[N+](C)(CCCCCCCCCCCC)CCNC(=O)[C@@]1(O)[C@H](C)C[C@H]2[C@@H]3CCC4=CC(=O)C=C[C@]4(C)[C@@]3(F)[C@@H](O)C[C@@]21C` : ____
4.85

----------
# System: A549
# test: Anticancer against human A549 cells after 72 hrs by MTT assay
# Assay type: functional, cell-based
# recorded conditions: A549, 72 h
pIC50: −log10 of the molar value.
property: pIC50

INSERT INTO measurements (molecular_string, tgt, property, result) VALUES
  ('C[C@@H]1C[C@H]2[C@@H]3CCC4=CC(=O)C=C[C@]4(C)[C@@]3(F)[C@@H](O)C[C@]2(C)[C@@]1(O)C(=O)CO', 'A549', 'pIC50', '< 4.82'),
  ('CC[N+](C)(CC)CCNC(=O)[C@@]1(O)[C@H](C)C[C@H]2[C@@H]3CCC4=CC(=O)C=C[C@]4(C)[C@@]3(F)[C@@H](O)C[C@@]21C', 'A549', 'pIC50', '< 4.82');

# evaluate next
Fill in the blank: the reported pIC50 of `CCCC[N+](C)(CCCC)CCNC(=O)[C@@]1(O)[C@H](C)C[C@H]2[C@@H]3CCC4=CC(=O)C=C[C@]4(C)[C@@]3(F)[C@@H](O)C[C@@]21C` is ____.
< 4.82
